Molecular target: human GRP receptor (human, UniProt P30550 1-384)
Sequence (P30550 whole entry): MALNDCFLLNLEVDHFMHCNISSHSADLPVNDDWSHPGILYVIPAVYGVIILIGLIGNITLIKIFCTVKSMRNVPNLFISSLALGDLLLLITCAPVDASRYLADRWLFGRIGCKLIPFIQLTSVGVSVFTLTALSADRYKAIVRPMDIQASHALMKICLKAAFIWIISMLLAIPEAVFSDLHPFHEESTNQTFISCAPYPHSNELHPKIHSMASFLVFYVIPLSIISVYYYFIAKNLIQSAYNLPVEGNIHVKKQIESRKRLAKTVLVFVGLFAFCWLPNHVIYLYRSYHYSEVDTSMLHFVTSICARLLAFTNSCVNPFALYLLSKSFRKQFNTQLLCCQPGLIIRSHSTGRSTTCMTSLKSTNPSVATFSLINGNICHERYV
Test: cell-based or functional assay
Starred links: 1 amine or outer side, 2 acyl side, 3 side chain; linkers in the order of their positions; H or OH if unused. Non-standard residues stand in square brackets, D forms with d. No end group written: not given here. *: point of attachment. C20 diacid = O=C(O)CCCCCCCCCCCCCCCCCCC(=O)*; d(γGlu) = O=C(O)[C@@H](CCC(=O)[*:2])N[*:1]; C18 diacid = O=C(O)CCCCCCCCCCCCCCCCC(=O)*; γGlu = O=C(O)[C@H](CCC(=O)[*:2])N[*:1]; 5CTMPA = not defined here; Nle = CCCC[C@H](N)C(=O)O; Dap = NC[C@H](N)C(=O)O; AEEA = NCCOCCOCC(=O)O; βAla = NCCC(=O)O; Sar = CNCC(=O)O
Attribute Measured: hIP1 GRPR EC50 (µM)

Sample answers from the record:
{C18 diacid}-[γGlu][AEEA][AEEA]RNHWAV[dA]HL[Nle][Sar]-NH2 (SMILES CCCC[C@H](NC(=O)[C@H](CC(C)C)NC(=O)[C@H](Cc1c[nH]cn1)NC(=O)[C@@H](C)NC(=O)[C@@H](NC(=O)[C@H](C)NC(=O)[C@H](Cc1c[nH]c2ccccc12)NC(=O)[C@H](Cc1c[nH]cn1)NC(=O)[C@H](CC(N)=O)NC(=O)[C@H](CCCNC(=N)N)NC(=O)COCCOCCNC(=O)COCCOCCNC(=O)CC[C@H](NC(=O)CCCCCCCCCCCCCCCCC(=O)O)C(=O)O)C(C)C)C(=O)N(C)CC(N)=O) [Peptide 100] ... 0.0999
{C18 diacid}-[d(γGlu)][AEEA][AEEA]GK(Ac)HWAV[dA]HL[Nle][Sar]-NH2 (SMILES CCCC[C@H](NC(=O)[C@H](CC(C)C)NC(=O)[C@H](Cc1c[nH]cn1)NC(=O)[C@@H](C)NC(=O)[C@@H](NC(=O)[C@H](C)NC(=O)[C@H](Cc1c[nH]c2ccccc12)NC(=O)[C@H](Cc1c[nH]cn1)NC(=O)[C@H](CCCCNC(C)=O)NC(=O)CNC(=O)COCCOCCNC(=O)COCCOCCNC(=O)CC[C@@H](NC(=O)CCCCCCCCCCCCCCCCC(=O)O)C(=O)O)C(C)C)C(=O)N(C)CC(N)=O) [Peptide 77] ... 0.184
{C20 diacid}-[γGlu]RNHWAV[dA]HL[Nle]-NH2 (SMILES CCCC[C@H](NC(=O)[C@H](CC(C)C)NC(=O)[C@H](Cc1c[nH]cn1)NC(=O)[C@@H](C)NC(=O)[C@@H](NC(=O)[C@H](C)NC(=O)[C@H](Cc1c[nH]c2ccccc12)NC(=O)[C@H](Cc1c[nH]cn1)NC(=O)[C@H](CC(N)=O)NC(=O)[C@H](CCCNC(=N)N)NC(=O)CC[C@H](NC(=O)CCCCCCCCCCCCCCCCCCC(=O)O)C(=O)O)C(C)C)C(N)=O) [Peptide 154] ... 0.00709

A = {C20 diacid}-[γGlu][AEEA][AEEA]G[Dap](5CTMPA)HWAV[βAla]HL[Nle]-NH2 (reading uncertain) [Peptide 261]
B = {C20 diacid}-[γGlu][AEEA][AEEA]GRHWAV[dA]HL[Nle] [Peptide 167]
QUERY: Among A and B , which shows a numerically higher hIP1 GRPR EC50 result? Please reply using the label of the selected record.
RESULT: B
